system: Wolbachia pipientis; experiment: Anti-Wolbachia Cell-Based Screen; type: functional; design: scale not given: in the data most compounds retested in dose-response had high values; details: 5 µM
The whole screen tested about 48,000 compounds, of which about 13,000 (27%) showed an effect of 50% or more. The list shows a part of the results.
Readout Label: Percent Effect (%)
Please give a number only; it is taken to be in %.

Q: What Percent Effect value was documented for this compound, CCS(=O)(=O)CCCN1CCSCC1c1ccc(Cl)cc1 (stereo not given) ?
A: 4.065

Continuing:
Q: Value lookup for Percent Effect; key = c1ccc2oc(N3CCCC3Cn3cncn3)nc2c1 (stereo not given)
A: 106.1

Q: Request the reported Percent Effect associated with "Cc1cnn(CCCNC2Cc3ccccc3C2)c1"
A: 8.956

Q: Percent Effect for COc1ccc(-c2ccc(C3CNCCO3)nc2)cc1.Cl (stereo not given) ?
A: 122.1

Q: Form field: reported Percent Effect of O=C(NC1CCN(C(=O)C2CCCCC2)C1)c1ccncc1Cl (stereo not given)
A: 79.99

Q: # get_value(readout='Percent Effect', item= CCNc1ccnc(NCC2CNCCO2)n1 (stereo not given) )
A: -11.04

Q: Could you tell me which Percent Effect is on file for COc1ccc(-c2cnc(CN3CCCC3CO)o2)cc1 (stereo not given) ?
A: -7.324

Q: Look up Percent Effect: "CCOc1ccc(SCCNS(=O)(=O)CC)cc1"
A: 37.47

Q: Look up Percent Effect: "CCc1nc(CCNC(=O)C2CC2)sc1C"
A: -12.51

Q: Need Percent Effect, item c1ccc2oc(N3CCCCC3Cn3cncn3)nc2c1 (stereo not given)
A: -11.74
